# phosphorylation enrichment values compiled below
# measured.on: Fes (UniProt P07332)
# Sequence (P07332 whole entry, looked up): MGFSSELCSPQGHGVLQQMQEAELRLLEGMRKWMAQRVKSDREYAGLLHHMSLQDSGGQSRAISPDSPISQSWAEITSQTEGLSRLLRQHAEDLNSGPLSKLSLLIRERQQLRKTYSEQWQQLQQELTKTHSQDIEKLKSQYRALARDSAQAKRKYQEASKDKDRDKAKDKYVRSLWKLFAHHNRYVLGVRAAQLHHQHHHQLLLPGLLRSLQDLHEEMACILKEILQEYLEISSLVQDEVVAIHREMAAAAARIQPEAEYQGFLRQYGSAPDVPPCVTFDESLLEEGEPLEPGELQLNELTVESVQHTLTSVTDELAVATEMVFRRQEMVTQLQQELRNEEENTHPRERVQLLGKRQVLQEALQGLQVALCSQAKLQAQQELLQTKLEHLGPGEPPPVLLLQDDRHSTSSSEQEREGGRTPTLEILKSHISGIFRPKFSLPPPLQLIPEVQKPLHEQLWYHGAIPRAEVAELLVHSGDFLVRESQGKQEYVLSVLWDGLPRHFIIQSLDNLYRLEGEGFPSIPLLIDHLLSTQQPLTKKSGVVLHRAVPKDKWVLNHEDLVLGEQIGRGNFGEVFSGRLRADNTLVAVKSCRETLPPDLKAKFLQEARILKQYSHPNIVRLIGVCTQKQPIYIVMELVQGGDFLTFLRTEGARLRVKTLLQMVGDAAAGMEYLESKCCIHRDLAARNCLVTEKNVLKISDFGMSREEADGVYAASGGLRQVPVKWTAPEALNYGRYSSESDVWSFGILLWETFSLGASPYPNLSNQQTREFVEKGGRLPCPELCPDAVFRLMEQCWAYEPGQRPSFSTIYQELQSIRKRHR
# assay.summary: phosphorylation enrichment, bacterial display (enrichment ratio); higher = better substrate or ligand; peptides without Tyr show the background;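 further: 11-residue human phosphosite peptides and single-mutation variants displayed on the E. coli surface, counted by deep sequencing, each peptide's frequency after selection divided by its frequency in the unselected input library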;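 further: frequency after pTyr selection over input frequency; kinase dosed for 20-30% of maximal phosphorylation in three min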
observable: phosphorylation enrichment

>>> endpoint_result("RMDGKYACSYT [FLNB_Y704_T703K]")
1.02
>>> endpoint_result("RRVPVYGGRGA [QDPR_Y16_L14P]")
0.836
>>> endpoint_result("GIVEDYRPPVF [ACVRL1_Y421_F425V_YF]")
0.777
>>> endpoint_result("KWHREYNFKYV [RICTOR_Y835_S837F]")
0.786
>>> endpoint_result("VHKKGYNKLNQ [ZNF676_Y98_E96K]")
0.66
>>> endpoint_result("LERFIYNREEF [HLA-DPB1_Y59_F64Y_YF]")
1.49
>>> endpoint_result("KYVKMYDNHQL [MYO9A_Y203]")
0.726
>>> endpoint_result("VAFLFYKSIGP [ADGRL4_Y302_V300L_YF]")
1.6
